B1: SMARCE1 (parent)
chain: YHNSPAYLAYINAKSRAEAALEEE

variants of: B1; experiment: protein stability index of a GFP-peptide fusion (GPS, HEK-293T) (PSI 1-6); higher = more stable; conditions: c terminus: a fixed tail appended;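 also: lentivirally expressed fusions sorted by FACS into six bins by GFP to DsRed ratio, PSI derived from sequencing read proportions per bin multiplied by bin number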
Reported protein stability index values for the following variants.
measuredMetric: protein stability index

mutationid=A17T endpointvalue=2.02
mutationid=A9K endpointvalue=1.68
mutationid=A9Y endpointvalue=1.74
mutationid=N3E endpointvalue=2.22
mutationid=E18A endpointvalue=2.58
mutationid=S4L endpointvalue=2.35
mutationid=Y10R endpointvalue=3.34
mutationid=H2A endpointvalue=2.37
mutationid=A6W endpointvalue=2.21
mutationid=E24N endpointvalue=2.47
mutationid=L8A endpointvalue=3.39
mutationid=I11H endpointvalue=2.46
mutationid=P5W endpointvalue=2.98
mutationid=L21T endpointvalue=1.59
mutationid=A20H endpointvalue=2.51
mutationid=A19Y endpointvalue=2.46
mutationid=Y1S endpointvalue=4.85
mutationid=E18F endpointvalue=2.37
mutationid=H2I endpointvalue=2.2
mutationid=P5A endpointvalue=2.76
mutationid=E22K endpointvalue=1.86
mutationid=S15P endpointvalue=1.61
mutationid=E24W endpointvalue=1.63
mutationid=A19R endpointvalue=2.59
mutationid=A17I endpointvalue=1.93
mutationid=E24I endpointvalue=1.88
mutationid=A19Q endpointvalue=2.12
mutationid=E23C endpointvalue=2.79
mutationid=A13M endpointvalue=3.18
mutationid=Y1R endpointvalue=4.86
mutationid=N3V endpointvalue=2.03
mutationid=N12Q endpointvalue=2.25
mutationid=A13S endpointvalue=1.83
mutationid=I11S endpointvalue=2.99
mutationid=L8R endpointvalue=2.47
mutationid=Y7K endpointvalue=3
mutationid=P5N endpointvalue=2.56
